Assay: Metabolic stability, human liver microsomes
Type: in vitro ADME
Conditions: 1 μM
endpoint: Metabolic Stability (% Remain, 30 min) Human (% Remain)

• COC(=O)c1c2c(c3ccc(C(F)(F)F)cc3c1O)OC(C)(C)C=C2 [14c] = 100

A. COC(=O)c1c2c(c3ccc(F)cc3c1O)OC(C)(C)C=C2 [14a]
B. CC1(C)C=Cc2c(C(=O)OCCN3CCOCC3)c(O)c3ccccc3c2O1
C. CNC(=O)c1c2c(c3ccccc3c1O)OC(C)(C)C=C2
D. COC(=O)c1c2c(c3ccccc3c1O)OC(C)(C)C=C2
E. CN(C)CCOC(=O)c1c2c(c3ccccc3c1O)OC(C)(C)C=C2
Enquiry: Please list these compounds in decreasing order of Metabolic Stability (% Remain, 30 min) Human. Lab note: record answer as labels in requested order.
Return: B, A, D, C, E
(B: 83 % Remain, A: 52 % Remain, D: 33 % Remain, C: 13 % Remain, E: 6 % Remain)

1. CC1(C)C=Cc2c(C(=O)OCCCN3CCOCC3)c(O)c3ccccc3c2O1
2. CC1(C)C=Cc2c(C(=O)OCCN3CCOCC3)c(O)c3cc(C(F)(F)F)ccc3c2O1 [15c]
Enquiry: Rank 1 against 2 by their Metabolic Stability (% Remain, 30 min) Human values and give the higher one. API: response body contains the label of the selected item.
Return: 2

a. CC1(C)C=Cc2c(C(=O)OCCN3CCOCC3)c(O)c3cc(F)ccc3c2O1 [15a]
b. CN(C)CCCOC(=O)c1c2c(c3ccccc3c1O)OC(C)(C)C=C2
c. Cc1ccc2c3c(c(C(=O)OCCN4CCOCC4)c(O)c2c1)C=CC(C)(C)O3 [15b]
Enquiry: Please list these compounds in decreasing order of Metabolic Stability (% Remain, 30 min) Human. Lab note: record answer as labels in requested order.
Return: a, c, b
